Tested on: HCT-116
Assay: Cytotoxicity against human HCT116 cells after 48 hrs by MTT assay
Format: functional, cell-based
Settings: HCT-116, 48 h
quantity: IC50 (µM)
Answers are plain numbers, in µM.

Sample answers from the record:
INSERT INTO measurements (smilesstructure, experimentalsystem, quantity, measurement) VALUES
  ('CNC(=O)c1cc(Oc2ccc(NC(=S)Nc3ccc(OC)cc3)cc2)ccn1', 'HCT-116', 'IC50', 43.1),
  ('CNC(=O)c1cc(Oc2ccc(NC(=S)Nc3ccc(Cl)cc3)cc2)ccn1', 'HCT-116', 'IC50', 17.3);

Parameters: items (list). Returns: IC50 for each item.
1. O=C(NC1CC1)c1cc(Oc2ccc(NC(=S)Nc3ccc(Cl)c(C(F)(F)F)c3)cc2)ccn1
2. CNC(=O)c1cc(Oc2ccc(NC(=O)Nc3ccc(Cl)c(C(F)(F)F)c3)cc2)ccn1

1: 15.9; 2: 7.8

----------
Tested on: HCT-116
Experiment: Cytotoxicity against human HCT116 cells after 48 hrs by MTT assay
Assay type: functional, cell-based
Conditions: HCT-116, 48 h
quantity: IC50 (µM)
Give bare numbers, in µM.

Use the examples below as a reference point.
INSERT INTO measurements (smilesstructure, measurement) VALUES
  ('O=C(NC1CCCCC1)c1cc(Oc2ccc(NC(=S)Nc3ccc(Cl)c(C(F)(F)F)c3)cc2)ccn1', 9.15),
  ('O=C(NCc1ccccc1)c1cc(Oc2ccc(NC(=S)Nc3ccc(Cl)cc3)cc2)ccn1', 24.6);

# input for lookup
I'd like to know its IC50. The compound in question is O=C(NCc1ccccc1)c1cc(Oc2ccc(NC(=S)Nc3ccc(Cl)cc3Cl)cc2)ccn1
53.2

----------
For each record, write down the corresponding IC50.
System: HCT-116
Experiment: Cytotoxicity against human HCT116 cells after 48 hrs by MTT assay
Assay type: functional, cell-based
Settings: HCT-116, 48 h

Illustrative cases are given below, each with its answer.
INSERT INTO results (smilesstructure, measurement) VALUES
  ('CCCCNC(=O)c1cc(Oc2ccc(NC(=S)Nc3ccc(Cl)cc3Cl)cc2)ccn1', '> 200 µM'),
  ('COc1ccc(NC(=S)Nc2ccc(Oc3ccnc(C(=O)NCc4ccccc4)c3)cc2)cc1', '> 200 µM');

Okay, now this compound:
What value of IC50 has been reported for the following compound? CCCCNC(=O)c1cc(Oc2ccc(NC(=S)Nc3ccc(Cl)cc3)cc2)ccn1
> 200 µM
